- ASSAY TARGET: human recombinant MC3R (CHO-K1/Gα15 stable cell line, GenScript) (human, UniProt P41968 1-323)
- Sequence (P41968 whole entry): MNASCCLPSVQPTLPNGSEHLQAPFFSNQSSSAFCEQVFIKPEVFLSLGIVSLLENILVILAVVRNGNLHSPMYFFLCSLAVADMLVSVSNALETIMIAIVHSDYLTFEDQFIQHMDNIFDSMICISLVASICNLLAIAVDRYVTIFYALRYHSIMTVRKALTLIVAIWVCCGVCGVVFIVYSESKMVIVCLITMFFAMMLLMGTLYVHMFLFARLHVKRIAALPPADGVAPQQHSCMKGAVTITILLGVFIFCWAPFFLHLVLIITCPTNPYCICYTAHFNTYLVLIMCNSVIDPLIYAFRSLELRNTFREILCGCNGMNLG
- EXPERIMENT SUMMARY: cell-based or functional assay
Positions of bridges follow the written chain, without caps; N, C: chain ends. Non-standard residues stand in square brackets, D forms with d. *: point of attachment. MoPA = (3-methoxyphenyl)acetic acid (N-terminal cap), COc1cccc(CC(=O)*)c1; NMeW = CN[C@@H](Cc1c[nH]c2ccccc12)C(=O)O; Lys(N3) = [N-]=[N+]=NCCCC[C@H](N)C(=O)O; NMeH = CN[C@@H](Cc1c[nH]cn1)C(=O)O; R5 = C=CCCC[C@@](C)(N)C(=O)O; S5 = C=CCCC[C@](C)(N)C(=O)O; dPra = C#CC[C@@H](N)C(=O)O; Nle = CCCC[C@H](N)C(=O)O; Pra = C#CC[C@H](N)C(=O)O
MEASURED QUANTITY: MC3R IC50 (nM)

Completed entries (count: 3):
BINDER	QUANTITY UNIT	MC3R IC50
Ac-[Nle][Lys(N3)][NMeH][dF]RW[Pra]-NH2 (triazole 2-7) [KR-043]	nM	61.6
{MoPA-MoPA}-[Nle][Lys(N3)]H[dF]RW[Pra]K-NH2 (triazole 2-7; not fully specified; printed as MoPA-MoPA-Nle-[Lys(N3)-His-DPhe-Arg-Trp-Pra]-Lys-NH2) [KR-063]	nM	62.8
Ac-[Nle][R5]H[dF]RW[S5]-NH2 (staple 2-7; SMILES CCCC[C@H](NC(C)=O)C(=O)N[C@]1(C)CCCC=CCCC[C@@](C)(C(N)=O)NC(=O)[C@H](Cc2c[nH]c3ccccc23)NC(=O)[C@H](CCCNC(=N)N)NC(=O)[C@@H](Cc2ccccc2)NC(=O)[C@H](Cc2c[nH]cn2)NC1=O) [KR-038]	nM	20000

(A) Ac-[Nle][Lys(N3)]H[dF]RW[dPra]K-NH2 (triazole 2-7; not fully specified; printed as Ac-Nle-[Lys(N3)-His-DPhe-Arg-Trp-DPra]-Lys-NH2) [KR-070]
(B) Ac-SYSME[NMeH]FRWGKPV-NH2 [KR-021]
(C) Ac-[Nle][Lys(N3)]H[dF]RW[Pra]K-NH2 (triazole 2-7) [KR-037]
(D) Ac-[Nle][Lys(N3)]HFRW[Pra]-NH2 (triazole 2-7) [KR-008]
(E) Ac-[Nle][Lys(N3)]H[dF]R[NMeW][Pra]-NH2 (triazole 2-7) [KR-046]
Qu. Output the entries ranked by MC3R IC50 from maximum down to minimum. Provide your answer as the labels ordered per the instruction.
Ans. A, D, B, E, C
(A: 1630 nM, D: 1110 nM, B: 445 nM, E: 98.8 nM, C: 62.9 nM)
